All figures here come from paper PMC9841532.

Assayed system: hA1AR (Homo sapiens)
Sequence (P30542 1-326): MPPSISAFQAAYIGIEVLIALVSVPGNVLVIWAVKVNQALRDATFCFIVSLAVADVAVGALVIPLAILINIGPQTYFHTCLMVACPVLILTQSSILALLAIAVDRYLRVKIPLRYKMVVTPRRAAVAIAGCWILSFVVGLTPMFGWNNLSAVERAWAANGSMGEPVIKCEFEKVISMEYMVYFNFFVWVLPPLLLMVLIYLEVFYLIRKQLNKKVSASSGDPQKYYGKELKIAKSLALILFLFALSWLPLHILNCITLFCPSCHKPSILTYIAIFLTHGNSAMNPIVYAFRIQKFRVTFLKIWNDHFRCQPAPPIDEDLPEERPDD
Run description: Radioligand binding competition, [3H]DPCPX, membranes from CHO-A1 cells
Condition info: 1 μM, [3H]DPCPX, human CHO cells, n = 2
In this section, each of the compounds is paired with its reported % at 1 μM hA1 (percentage displacement of specific binding).
Test readout: % at 1 μM hA1 (percentage displacement of specific binding) (%)

Compound: CC1=C(C(=O)OC(C)C)C(c2cccs2)n2c(nc3cc(F)c(F)cc32)N1 (stereo not drawn) [14f]
Observed value: 1

Compound: CC1=C(C(=O)OC(C)C)C(c2ccsc2)n2c(nc3cc(F)ccc32)N1 (stereo not drawn) [16h]
Observed value: 2

Compound: CCOC(=O)C1=C(C)Nc2nc3cc(Br)ccc3n2[C@@H]1c1ccoc1 [(R)-16s]
Observed value: 10

Compound: CC1=C(C(=O)OC(C)C)[C@H](c2ccco2)n2c(nc3cc(Br)ccc32)N1 [(R)-16r]
Observed value: 12

Compound: CCOC(=O)C1=C(C)Nc2nc3ccc(Cl)cc3n2C1c1ccsc1 (stereo not drawn) [15o]
Observed value: 4

Compound: CC1=C(C(=O)OC(C)C)[C@H](c2ccco2)n2c(nc3cc(Cl)ccc32)N1 [(R)-16j]
Observed value: 7

Compound: CC1=C(C(=O)OC(C)C)C(c2ccoc2)n2c(nc3ccc(F)cc32)N1 (stereo not drawn) [15d]
Observed value: 25

Compound: CC1=C(C(=O)OC(C)C)C(c2ccsc2)n2c(nc3ccc(Br)cc32)N1 (stereo not drawn) [15x]
Observed value: 1

Compound: CC1=C(C(=O)OC(C)C)C(c2cccs2)n2c(nc3ccc(Br)cc32)N1 (stereo not drawn) [15v]
Observed value: 1

====

Recorded pKi values for a group of compounds are listed next.
Assayed system: hA2AAR (Homo sapiens, UniProt P29274)
Sequence (P29274 whole entry): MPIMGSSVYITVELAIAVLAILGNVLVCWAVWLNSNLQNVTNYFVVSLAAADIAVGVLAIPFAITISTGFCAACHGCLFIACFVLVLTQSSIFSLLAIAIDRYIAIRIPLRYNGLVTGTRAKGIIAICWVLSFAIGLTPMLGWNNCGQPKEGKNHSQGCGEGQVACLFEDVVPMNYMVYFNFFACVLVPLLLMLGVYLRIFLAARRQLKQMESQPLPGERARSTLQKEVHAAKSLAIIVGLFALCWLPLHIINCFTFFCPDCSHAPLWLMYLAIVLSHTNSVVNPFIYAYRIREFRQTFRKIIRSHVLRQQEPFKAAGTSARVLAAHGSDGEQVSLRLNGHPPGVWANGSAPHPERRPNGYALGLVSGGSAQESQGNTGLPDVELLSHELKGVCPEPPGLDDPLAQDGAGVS
Run description: Radioligand binding competition, [3H]ZM241385, membranes from HeLa-A2A cells
Condition info: displacement of specific [3H]ZM241385 binding in human HeLa cells, n = 3; read-out: Ki hA2A
pKi: −log10 of the molar value.

Compound: CC1=C(C(=O)OC(C)C)C(c2ccoc2)n2c(nc3cc(Br)ccc32)N1 (stereo not drawn) [16t]
pKi: 6.29
//
Compound: CC1=C(C(=O)OC(C)C)[C@@H](c2ccoc2)n2c(nc3cc(Cl)ccc32)N1 [(R)-16l]
pKi: 7.02
//
Compound: CC1=C(C(=O)OC(C)C)C(c2ccoc2)n2c(nc3cc(Cl)ccc32)N1 (stereo not drawn) [16l]
pKi: 6.75

====

# CYP3A4 % inh. at 10 μM, 7-BFC per record follows
Assayed system: CYP3A4 (Homo sapiens)
Construct: host or cells: insect cell microsomes
Sequence (P08684 whole entry): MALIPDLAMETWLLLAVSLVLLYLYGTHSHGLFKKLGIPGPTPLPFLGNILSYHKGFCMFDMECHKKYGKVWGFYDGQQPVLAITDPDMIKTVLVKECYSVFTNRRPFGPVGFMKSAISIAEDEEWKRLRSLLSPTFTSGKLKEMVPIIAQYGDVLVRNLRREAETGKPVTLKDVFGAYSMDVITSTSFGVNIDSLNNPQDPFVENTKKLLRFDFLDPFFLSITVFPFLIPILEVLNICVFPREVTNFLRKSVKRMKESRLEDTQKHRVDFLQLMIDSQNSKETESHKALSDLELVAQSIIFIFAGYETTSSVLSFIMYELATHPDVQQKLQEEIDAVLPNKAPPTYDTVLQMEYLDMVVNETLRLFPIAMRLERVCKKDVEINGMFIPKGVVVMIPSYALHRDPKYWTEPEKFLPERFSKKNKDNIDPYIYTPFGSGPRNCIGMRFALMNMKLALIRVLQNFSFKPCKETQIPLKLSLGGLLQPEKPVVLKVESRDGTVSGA
Run description: CYP3A4 inhibition (fluorescence, substrates DBF or 7-BFC)
Assay type: biochemical
Condition info: 10 μM, substrate 7-benzyloxy-4-trifluoromethyl-coumarin

Compound: CC1=C(C(=O)OC(C)C)C(c2ccco2)n2c(nc3cc(Cl)ccc32)N1 (stereo not shown) [16j]
Unit string: %
CYP3A4 % inh. at 10 μM, 7-BFC: 54

Compound: CC1=C(C(=O)OC(C)C)C(c2ccco2)n2c(nc3cc(F)ccc32)N1 (stereo not shown) [16b]
Unit string: %
CYP3A4 % inh. at 10 μM, 7-BFC: 63

Compound: CC1=C(C(=O)OC(C)C)C(c2ccco2)n2c(nc3cc(F)c(F)cc32)N1 (stereo not shown) [14b]
Unit string: %
CYP3A4 % inh. at 10 μM, 7-BFC: 58

Compound: CC1=C(C(=O)OC(C)C)C(c2cocn2)n2c(nc3cc(F)ccc32)N1 (stereo not shown) [18b]
Unit string: %
CYP3A4 % inh. at 10 μM, 7-BFC: 52

Compound: CC1=C(C(=O)OC(C)C)C(c2ccoc2)n2c(nc3cc(Cl)ccc32)N1 (stereo not shown) [16l]
Unit string: %
CYP3A4 % inh. at 10 μM, 7-BFC: 44

Compound: CC1=C(C(=O)OC(C)C)C(c2ccco2)n2c(nc3cc(Br)ccc32)N1 (stereo not shown) [16r]
Unit string: %
CYP3A4 % inh. at 10 μM, 7-BFC: 52

Compound: CC1=C(C(=O)OC(C)C)C(c2ccco2)n2c(nc3ccc(Cl)cc32)N1 (stereo not shown) [15j]
Unit string: %
CYP3A4 % inh. at 10 μM, 7-BFC: 11
